Below: a set of entries, each annotated with reported Kd.
target: T1, IFN-αJ1 (human, UniProt P01567 24-189); test: ProteOn, one antigen concentration
T1 construct: also called IFN-α7; alpha J1
Property label: Kd (nM)

IFWM3355 (antibody, V domains shown, VH IFWH624, VL IFWL1022; converted mAb; also called IFWB3090) VH: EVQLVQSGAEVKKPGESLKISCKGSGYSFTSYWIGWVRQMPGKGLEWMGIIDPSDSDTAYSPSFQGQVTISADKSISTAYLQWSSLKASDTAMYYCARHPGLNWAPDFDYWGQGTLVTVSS VL: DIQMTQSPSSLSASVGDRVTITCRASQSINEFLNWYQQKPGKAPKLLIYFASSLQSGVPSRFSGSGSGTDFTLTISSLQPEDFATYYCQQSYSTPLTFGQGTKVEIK = 0.079
IFWM3352 (antibody, V domains shown, VH IFWH624, VL IFWL1013; converted mAb; also called IFWB3087) VH: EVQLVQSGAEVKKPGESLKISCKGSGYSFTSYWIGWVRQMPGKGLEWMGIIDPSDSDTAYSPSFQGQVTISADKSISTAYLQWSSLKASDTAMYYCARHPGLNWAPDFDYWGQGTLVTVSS VL: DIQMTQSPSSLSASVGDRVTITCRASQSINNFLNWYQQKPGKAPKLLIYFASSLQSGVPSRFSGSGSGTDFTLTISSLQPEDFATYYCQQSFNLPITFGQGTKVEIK = 0.287
IFWM3313 (antibody, V domains shown, VH IFWH591, VL IFWL1013; converted mAb; also called IFWB3048) VH: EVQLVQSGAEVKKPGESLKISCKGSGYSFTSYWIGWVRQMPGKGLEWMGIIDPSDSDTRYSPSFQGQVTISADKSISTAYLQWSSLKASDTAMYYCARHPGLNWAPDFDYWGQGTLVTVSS VL: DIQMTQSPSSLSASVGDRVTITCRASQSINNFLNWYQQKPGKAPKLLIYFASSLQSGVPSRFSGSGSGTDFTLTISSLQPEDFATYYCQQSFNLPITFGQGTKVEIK = 0.221
IFWM3327 (antibody, V domains shown, VH IFWH591, VL IFWL1063; converted mAb; also called IFWB3062) VH: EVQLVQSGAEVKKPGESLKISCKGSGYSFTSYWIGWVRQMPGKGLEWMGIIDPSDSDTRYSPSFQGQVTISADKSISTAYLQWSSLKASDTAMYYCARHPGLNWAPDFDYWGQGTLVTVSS VL: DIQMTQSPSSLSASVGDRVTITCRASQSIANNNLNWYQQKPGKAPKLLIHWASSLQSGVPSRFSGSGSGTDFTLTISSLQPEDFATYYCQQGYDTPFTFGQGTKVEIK = 0.113
IFWM3309 (antibody, V domains shown, VH IFWH591, VL IFWL1006; converted mAb; also called IFWB3044) VH: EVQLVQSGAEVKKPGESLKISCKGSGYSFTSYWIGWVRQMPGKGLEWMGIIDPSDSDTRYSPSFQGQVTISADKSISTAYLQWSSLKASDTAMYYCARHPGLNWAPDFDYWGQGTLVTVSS VL: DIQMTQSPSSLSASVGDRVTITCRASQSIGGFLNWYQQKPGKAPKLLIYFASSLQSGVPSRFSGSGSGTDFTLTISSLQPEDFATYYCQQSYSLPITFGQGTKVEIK = 0.275
IFWM3339 (antibody, V domains shown, VH IFWH591, VL IFWL1093; converted mAb; also called IFWB3074) VH: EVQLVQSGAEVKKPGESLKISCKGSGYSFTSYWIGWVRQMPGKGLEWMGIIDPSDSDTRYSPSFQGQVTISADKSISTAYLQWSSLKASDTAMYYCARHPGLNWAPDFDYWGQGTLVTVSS VL: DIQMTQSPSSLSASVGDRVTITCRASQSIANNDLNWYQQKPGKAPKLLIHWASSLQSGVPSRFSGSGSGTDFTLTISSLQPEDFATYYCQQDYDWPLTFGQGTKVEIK = 0.161
IFWM3347 (antibody, V domains shown, VH IFWH624, VL IFWL1004; converted mAb; also called IFWB3082) VH: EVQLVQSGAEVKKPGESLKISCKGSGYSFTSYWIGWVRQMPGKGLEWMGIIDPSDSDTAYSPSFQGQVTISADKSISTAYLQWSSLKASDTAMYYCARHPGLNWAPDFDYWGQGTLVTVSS VL: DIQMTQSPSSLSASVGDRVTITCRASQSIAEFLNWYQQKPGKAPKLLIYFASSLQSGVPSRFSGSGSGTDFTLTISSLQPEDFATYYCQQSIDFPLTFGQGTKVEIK = 0.411
IFWM3318 (antibody, V domains shown, VH IFWH591, VL IFWL1038; converted mAb; also called IFWB3053) VH: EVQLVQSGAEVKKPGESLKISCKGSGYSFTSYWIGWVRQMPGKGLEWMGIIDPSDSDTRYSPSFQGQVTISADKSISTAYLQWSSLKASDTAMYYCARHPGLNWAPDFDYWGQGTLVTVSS VL: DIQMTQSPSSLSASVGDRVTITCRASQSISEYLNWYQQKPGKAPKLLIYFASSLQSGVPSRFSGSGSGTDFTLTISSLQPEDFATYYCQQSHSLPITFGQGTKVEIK = 0.119
IFWM3334 (antibody, V domains shown, VH IFWH591, VL IFWL1082; converted mAb; also called IFWB3069) VH: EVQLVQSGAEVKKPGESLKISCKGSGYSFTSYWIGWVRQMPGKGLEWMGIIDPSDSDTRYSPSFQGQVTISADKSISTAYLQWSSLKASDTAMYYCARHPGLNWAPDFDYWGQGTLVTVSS VL: DIQMTQSPSSLSASVGDRVTITCRASQSIRNNSLNWYQQKPGKAPKLLIYAASSLQSGVPSRFSGSGSGTDFTLTISSLQPEDFATYYCQQDYNWPLTFGQGTKVEIK = 2.4
IFWM3354 (antibody, V domains shown, VH IFWH624, VL IFWL1017; converted mAb; also called IFWB3089) VH: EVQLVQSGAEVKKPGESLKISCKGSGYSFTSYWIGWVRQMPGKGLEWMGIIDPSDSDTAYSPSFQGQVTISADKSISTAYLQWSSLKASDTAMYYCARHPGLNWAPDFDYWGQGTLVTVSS VL: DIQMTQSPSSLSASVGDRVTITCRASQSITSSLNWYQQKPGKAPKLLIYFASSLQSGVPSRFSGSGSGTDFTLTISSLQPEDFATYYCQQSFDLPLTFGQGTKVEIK = 0.098
